Attribution: patent US20220144956A1

target: human TGFßRII (antigen of the Octet experiments) (human, UniProt P37173 23-166); assay: BLI (Octet)
Sequence (P37173 23-166): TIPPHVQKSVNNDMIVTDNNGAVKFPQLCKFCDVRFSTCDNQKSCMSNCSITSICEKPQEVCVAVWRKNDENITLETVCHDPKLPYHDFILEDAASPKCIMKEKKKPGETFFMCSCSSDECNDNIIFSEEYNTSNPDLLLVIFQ
measured.attribute: pKd
# pKd = -log10(concentration in molar units)

Below, 2 binders whose answers are already recorded.
binder	value.measured
H1.5 L1 XENP34461 (antibody, V domains shown) VH: QLQVQESGSGLVKPSETLSLTCTVSGGSISNSYFSWGWIRQPPGKGLEWIGSFYYGEKTYYNPSLKSRATISIDTSKSQFSLKLSSVTAADTAVYYCPRGPTMIRGVIDSWGQGTLVTVSS VL: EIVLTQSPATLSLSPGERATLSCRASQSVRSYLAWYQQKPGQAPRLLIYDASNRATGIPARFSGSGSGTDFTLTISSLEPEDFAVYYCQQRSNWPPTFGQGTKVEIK	9.61
H1.7 L1 XENP34463 (antibody, V domains shown) VH: QLQVQESGPGLVKPSETLSLTCAVSGGSISNSYFSWGWIRQPPGKGLEWIGSFYYGEKTYYNPSLKSRATISIDTSKSQFSLKLSSVTAADTAVYYCPRGPTMIRGVIDSWGQGTLVTVSS VL: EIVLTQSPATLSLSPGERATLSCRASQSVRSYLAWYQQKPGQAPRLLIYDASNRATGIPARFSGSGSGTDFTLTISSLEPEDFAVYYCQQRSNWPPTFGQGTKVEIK	9.50

Reported pKd ( H1.30 L1 XENP34486 (antibody, V domains shown) VH: QLQVQESGPGLVKPSETLSLTCTVSGGSISNSYFYWGWIRQPPGKGLEWIGSFYYGEKTYYNPSLKSRATISIDTSKSQFSLKLSSVTAADTAVYYCPRGPTMIRGVIDSWGQGTLVTVSS VL: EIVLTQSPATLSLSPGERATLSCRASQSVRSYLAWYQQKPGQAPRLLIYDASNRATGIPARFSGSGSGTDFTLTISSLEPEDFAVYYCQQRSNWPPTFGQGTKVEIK ) = 8.23
